test system: Setaria viridis; assay: Pre-emergence herbicidal effect against SETVI; type: in vivo; conditions: 1280 g/ha, visual score after 3 weeks, 100% = plants have died, 0% = like control plants
// Pre-emergence action against SETVI lookup, one value per entry

{"compound": "O=C(O)CSc1nn(-c2cccc(F)c2F)c(-c2cncnc2)c1Br", "unit name": "%", "Pre-emergence action against SETVI": 90}
{"compound": "COC(=O)CNC(=O)CSc1nn(-c2ccccc2F)c(-c2ccccc2)c1Br", "unit name": "%", "Pre-emergence action against SETVI": 90}
{"compound": "O=C(O)CSc1nn(-c2cccc(F)c2F)c(-c2ccccc2)c1Br", "unit name": "%", "Pre-emergence action against SETVI": 100}
{"compound": "CCOC(=O)C[S+]([O-])c1nn(-c2cccc(F)c2F)c(-c2ccccc2)c1Br (stereo not drawn)", "unit name": "%", "Pre-emergence action against SETVI": 100}
{"compound": "CCOC(=O)CSc1nn(-c2ccc(F)cc2F)c(-c2ccc(F)c(F)c2)c1Br", "unit name": "%", "Pre-emergence action against SETVI": 100}
{"compound": "CCOC(=O)CSc1nn(-c2ccccc2F)c(-c2ccc(F)c(F)c2)c1C#N", "unit name": "%", "Pre-emergence action against SETVI": 100}
{"compound": "COC(=O)CNC(=O)CSc1nn(-c2ccccc2F)c(-c2cccnc2)c1Br", "unit name": "%", "Pre-emergence action against SETVI": 100}
{"compound": "CCOC(=O)CSc1nn(-c2cccc(F)c2F)c(-c2ccccc2)c1Br", "unit name": "%", "Pre-emergence action against SETVI": 100}
{"compound": "CCOC(=O)CSc1nn(-c2ccc(F)cc2)c(-c2ccc(F)cc2)c1Br", "unit name": "%", "Pre-emergence action against SETVI": 100}
{"compound": "O=C(O)CSc1nn(-c2ccccc2F)c(-c2cnccn2)c1Br", "unit name": "%", "Pre-emergence action against SETVI": 90}
{"compound": "CCOC(=O)CSc1nn(-c2ccccc2OC)c(-c2ccc(F)cc2)c1Br", "unit name": "%", "Pre-emergence action against SETVI": 90}
{"compound": "O=C(O)CSc1nn(-c2ccccc2F)c(-c2cccnc2)c1Br", "unit name": "%", "Pre-emergence action against SETVI": 90}
{"compound": "COC(=O)CNC(=O)CSc1nn(-c2ccccc2F)c(-c2cncc(F)c2)c1Br", "unit name": "%", "Pre-emergence action against SETVI": 100}
{"compound": "COC(=O)CCNC(=O)CSc1nn(-c2ccccc2F)c(-c2cncc(F)c2)c1Br", "unit name": "%", "Pre-emergence action against SETVI": 100}
{"compound": "CCOC(=O)CSc1nn(-c2ccccc2F)c(-c2ccc(F)c(F)c2)c1Cl", "unit name": "%", "Pre-emergence action against SETVI": 100}
{"compound": "O=C(O)CSc1nn(-c2ccccc2F)c(-c2ccc(F)c(F)c2)c1Br", "unit name": "%", "Pre-emergence action against SETVI": 100}
{"compound": "O=C(O)CSc1nn(-c2ccccc2F)c(-c2cncc(Cl)c2)c1Br", "unit name": "%", "Pre-emergence action against SETVI": 100}
{"compound": "CC(Sc1nn(-c2ccccc2F)c(-c2ccc(F)c(F)c2)c1Br)C(=O)O (stereo not drawn)", "unit name": "%", "Pre-emergence action against SETVI": 100}
